- protocol.description: TOR pathway RPL19A-GFP modulators, concentration series – cell-based, S. cerevisiae, flow cytometry, MLPCN hits, dose response (AID 2740);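 note: background is signal of the same compound in parental non-GFP s288c yeast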
- conditions.used: S. cerevisiae RPL19A-GFP strain, flow cytometry fluorescence, 3 h; at 33 µM (top of the series)
Activity calls are given as the source filed them.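 Rule for the calls: active = compounds whose fitted half-maximal concentration for changing the GFP signal is at or below a set limit; inactive = the rest.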
assay.readout: GFP fluorescence, lower = active (kMESF (background-subtracted))

- sample.smiles: "O=C(O)c1cc[c]([Hg][Cl])cc1"
  result: "15.7 (inactive)"
- sample.smiles: "O=C(Sc1cccc2cccnc12)c1ccccc1Br"
  result: "34.8 (inactive)"
- sample.smiles: "CCN(CC(=O)Nc1cc(S(=O)(=O)N2CCOCC2)ccc1Cl)Cc1ccccc1"
  result: "43.2 (inactive)"
- sample.smiles: "Cc1cc(C(=O)Nc2nc(-c3ccccn3)cs2)ccc1[N+](=O)[O-]"
  result: "48.9 (inactive)"
- sample.smiles: "On1ccccc1=S"
  result: "38 (inactive)"
- sample.smiles: "O=C(CCc1ccccc1)NNC(=S)NC(=O)c1ccccc1"
  result: "44.5 (inactive)"
- sample.smiles: "CCOC(=O)Cn1cc(/C=C/[N+](=O)[O-])c2ccccc21"
  result: "39.5 (inactive)"
- sample.smiles: "O=C(O)c1ccn2c(C(=O)c3ccccc3)c(-c3ccccc3)cc2c1"
  result: "39.3 (inactive)"
- sample.smiles: "O=C(OCC(=O)N1CCN(C(=O)c2ccco2)CC1)c1cc(-c2ccc(Cl)c(Cl)c2Cl)nc2ccccc12"
  result: "31.8 (inactive)"
- sample.smiles: "O=C(c1ccc(C(=O)N2CCCc3ccccc32)s1)N1CCCc2ccccc21"
  result: "38.1 (inactive)"
- sample.smiles: "CCN(CC)c1ccc(/C=C2\\C(=O)c3ccc(C(=O)O)cc3C2=O)cc1"
  result: "51.5 (inactive)"

// data source = PubChem BioAssay AID2740
